Cited source for all entries: PubChem BioAssay AID2610

Tested on: BJeLR fibroblast viability, Alamar Blue fluorescence, 48 h
Assay: BJeLR fibroblast growth inhibition, viability readout – cell-based, alamar blue fluorescence, 48 h, cherrypicked samples, dose response (AID 2610);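 further: BJ fibroblasts with hTERT plus SV40 large and small T and HRAS V12; EC50 for loss of viable cells so potency reflects cytotoxic compounds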
Results filed as inconclusive are left out.
The following molecules are shown together with reported pEC50 values.
Just the number, please; pEC50 means minus log10 of the concentration in mol/L.

Field: example entries. Status: answers known.
-- ask What does the data say about its pEC50? Entry: `Cc1cc(C)c2c(CCl)cc(=O)oc2c1`
-- reply 6.94

-- ask # iterate: `Cn1c(/C=C/c2ccc([N+](=O)[O-])o2)nc2ccccc2c1=O`
-- reply 6.26

More entries:
-- ask What does the data say about its pEC50? Entry: `COc1ccc(S(=O)(=O)N2CCOCC2)cc1NC(=O)CCNC(=O)c1ccc(Br)cc1`
-- reply 6.36

-- ask # iterate: Cc1ccc(C2=NN(C(=O)CCl)C(c3ccco3)C2)o1 (centres undefined)
-- reply 5.80
